Species on record: Rattus norvegicus
experimental.protocol: DrugMatrix - Regimen: Daily Repeat
Assay type: toxicity, organism-based, Sprague-Dawley
Set-up: regimen Daily Repeat, gender Male, age 6-8 weeks
measurement.context: in vivo, po, 10 mg/kg, 120 h, tissue Plasma, route oral GAVAGE, dose level Low, time 5 day, […]
Task for the reader: assign each of the following compounds its reported CREATINE PHOSPHOKINASE.

Before answering, review these 3 worked examples.
> print(dat)
                                   compound              observable    reported
1  CCOC(=O)C1=C(C)NC(C)=C(C(=O)OC)C1c1cccc([N+](=O)[O-])c1 (centres undefined)  CREATINE PHOSPHOKINASE  376.67 u/L
2  CC(C)CC(N(C)C)C1(c2ccc(Cl)cc2)CCC1 (centres undefined)  CREATINE PHOSPHOKINASE  211.33 u/L
3  COCCOC(=O)C1=C(C)NC(C)=C(C(=O)OC(C)C)C1c1cccc([N+](=O)[O-])c1 (centres undefined)  CREATINE PHOSPHOKINASE  716.33 u/L

Read the next record carefully.
Ask | Look up CREATINE PHOSPHOKINASE for this compound: COc1ccc2cc([C@H](C)C(=O)O)ccc2c1
Reply | 1655.33 u/L
